Catalogue of molecules with associated growth
# System: SN12C renal
# assay_info: NCI-60 one-dose screen, 48 h (100 = growth as untreated, 0 = no growth, -100 = all killed)
# test_settings: 10 µM unless noted
Compounds without any hit were thinned out: in the full panel of roughly 83,000, 20% have a hit.
Express the result in % but write the number alone.

# molecule, growth (%)
data = [
    ("COc1cc(NC(=O)COc2ccccc2)c(C(N)=O)cc1OC", 44.7),
    ("CCN(CC)CCCNc1ccc(C)c2sc3ccccc3c(=O)c12", 40.5),
    ("CCN1CCN(c2nc3ccccc3c3c(=O)c4cc(F)ccc4sc23)CC1", 80.7),
    ("O=C(c1cnn2c1NC(c1ccc(F)cc1)C2)N1CCCCC1 (stereo unspecified)", 104),
    ("Cc1c(NCC(=O)Nc2nc3ccccc3[nH]2)c(=O)n(-c2ccccc2)n1C", 99.4),
]

Please look at this molecule and report its growth: CCOC(=O)c1c(-c2cc(OC)c(OC)c(OC)c2)csc1N
105
